Attribution: patent US20200164069A1

For each of the binders below, state its IC50 in pSTAT3 assay (human PBMCs, 20 pM IL-21).
biological target: recombinant cynomolgus monkey IL-21 (cynomolgus monkey (Macaca fascicularis), UniProt Q9HBE4 30-162 (human entry), limits assumed); assay: cell-based or functional assay
Sequence (Q9HBE4 other isoform, or with tags, fused parts or gaps limits assumed): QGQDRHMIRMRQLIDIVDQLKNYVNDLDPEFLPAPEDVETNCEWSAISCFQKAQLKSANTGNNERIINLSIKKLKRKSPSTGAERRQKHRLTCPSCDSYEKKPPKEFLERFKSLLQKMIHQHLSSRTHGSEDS
Respond with the bare value in pM.

### Prompt Tell me the measured IC50 in pSTAT3 assay (human PBMCs, 20 pM IL-21) of murine monoclonal antibody 9H10 (antibody, V domains shown, also called 9H10.1) VH: EVQLQQFGAEVVKPGASVKMSCKASGYTFTDYNMNWVKQSHEKSLEWIGDIHPKFHSTNYNQKFKGKATLTIDTSSSTAYMELRNLTSEDTAVYYCARVGNYVYFVMDYWGQGTSVTVSS VL: SIVMTQTPKFLLVSAGDRVTITCKASQSVSNDVAWYQQKPGQSPKLLIYYASNRYTGVPDRFSGSGYGTDFTFTISTVQAEDLAVYFCQQDYTSPWTFGGGTKLEIK , please.
### Response 160

### Prompt Tell me the measured IC50 in pSTAT3 assay (human PBMCs, 20 pM IL-21) of 9F11-4 (antibody, IgG1, V domains shown) VH: EVQLVESGGGLVQPGGSLRLSCAASGFTFSDAWMDWVRQAPGKGLEWVAEIRSEADNHPTYYAESVKGRFTISRDDSKNSLYLQMNSLKTEDTAVYYCTEYDYEGFVHWGQGTLVTVSS VL: DIVMTQTPLSLSVTPGQPASISCRASKSVSTYGYSYMHWYLQKPGQPPQLLIYLASNLESGVPDRFSGSGSGTDFTLKISRVEAEDVGVYYCQHSRELPLTFGQGTKLEIK , please.
### Response 52.2

### Prompt Tell me the measured IC50 in pSTAT3 assay (human PBMCs, 20 pM IL-21) of K2Ha-N56Q (antibody, human IgG1, kappa, V domains shown) VH: QVQLVQSGAEVKKPGASVKVSCKASGYTFTDYWMHWVRQAPGQGLEWMGTIDPSDQYTIYSQNFKGRVTMTRDTSTSTVYMELSSLRSEDTAVYYCARYGFAMDYWGQGTLVTVSS VL: DIQLTQSPSSLSASVGDRVTITCRASQDISNFLNWYQQKPGKAVKLLIYYTSRLHSGVPSRFSGSGSGTDYTLTISSLQPEDFATYFCQQGHTLPRTFGGGTKVEIKR , please.
### Response 15.6

### Prompt Tell me the measured IC50 in pSTAT3 assay (human PBMCs, 20 pM IL-21) of murine monoclonal antibody 19E3 (antibody, V domains shown, also called 19E3.1) VH: QVQLQQPGSELVMPGASVKMSCKASGYIFTDYWMHWVKQRPGQGLEWIGTIDPSDNYTIYSQNFKGKATLTVDESSSTAYMLLSSLTSEDSAVYFCARYGFAMDYWGQGTSVTVSS VL: DIQLTQTTSSLSASLGDRVTISCRASQDISNFLNWYQQTPDGTVKLLIYYTSRLHSGVPSRFSGSGSGTDYSLTISNLEQEDIATYFCQQGHTLPRTFGGGTKLEIK , please.
### Response 5.99
